- assayed_target: Short transient receptor potential channel 6 (Mus musculus) (UniProt Q61143)
- Sequence (Q61143 whole entry, looked up): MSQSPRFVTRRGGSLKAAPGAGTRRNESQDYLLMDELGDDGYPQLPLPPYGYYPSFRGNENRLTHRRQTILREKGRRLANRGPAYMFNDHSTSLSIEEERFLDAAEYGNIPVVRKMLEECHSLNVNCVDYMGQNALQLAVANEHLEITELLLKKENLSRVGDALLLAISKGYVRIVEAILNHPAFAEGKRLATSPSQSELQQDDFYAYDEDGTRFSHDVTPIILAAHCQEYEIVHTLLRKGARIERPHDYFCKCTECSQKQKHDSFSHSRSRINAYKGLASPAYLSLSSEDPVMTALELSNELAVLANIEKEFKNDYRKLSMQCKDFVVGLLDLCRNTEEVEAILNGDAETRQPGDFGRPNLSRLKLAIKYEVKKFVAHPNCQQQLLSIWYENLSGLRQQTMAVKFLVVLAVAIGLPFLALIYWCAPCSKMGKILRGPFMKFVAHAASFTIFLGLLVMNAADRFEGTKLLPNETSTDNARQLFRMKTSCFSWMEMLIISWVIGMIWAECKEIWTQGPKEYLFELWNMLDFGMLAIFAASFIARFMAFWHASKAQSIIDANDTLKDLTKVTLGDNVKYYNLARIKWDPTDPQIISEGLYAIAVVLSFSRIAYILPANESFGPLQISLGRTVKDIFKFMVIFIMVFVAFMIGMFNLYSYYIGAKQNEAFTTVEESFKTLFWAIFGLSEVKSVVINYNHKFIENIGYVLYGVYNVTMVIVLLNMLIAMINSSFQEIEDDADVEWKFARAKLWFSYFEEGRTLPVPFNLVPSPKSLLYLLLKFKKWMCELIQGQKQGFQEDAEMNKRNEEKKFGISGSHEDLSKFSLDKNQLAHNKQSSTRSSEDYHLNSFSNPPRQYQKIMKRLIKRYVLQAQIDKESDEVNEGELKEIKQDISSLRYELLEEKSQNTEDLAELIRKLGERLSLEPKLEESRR
- run_description: TRPC6 inhibition potency of TRPC4 inhibitor analogs, dose response, selectivity assay for selective TRPC4 inhibitor project, HEK293 cells, membrane potential dye, IC50 (AID 492987)
- conditions_used: at 20 µM (top of the series)
Activity calls are given as the source filed them.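 How the source made its calls: active means over 30% block of the TRPC6 ion channel at some tested dose, plus a fitted dose-response curve; inactive means no block at any dose, or no fitted curve.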
measured_metric: fluorescence ratio, lower = inhibition

Please review the following examples before continuing.
chem_smiles=c1ccc(-c2cc(N3CCCC3)nc3ccccc23)cc1 measured_metric="fluorescence ratio, lower = inhibition" value_measured=inactive
chem_smiles=Cc1cc(N2CCOc3ccccc32)nc2ccccc12 measured_metric="fluorescence ratio, lower = inhibition" value_measured=inactive
chem_smiles=COc1ccc(N2CCN(c3cc(C)c4ccccc4n3)CC2)cc1 measured_metric="fluorescence ratio, lower = inhibition" value_measured=inactive
chem_smiles=Cc1ccnc(N2CCCCC2)n1 measured_metric="fluorescence ratio, lower = inhibition" value_measured=inactive
chem_smiles=CCc1ccc2nc(N3CCCCCC3)cc(C)c2c1 measured_metric="fluorescence ratio, lower = inhibition" value_measured=inactive

# compound `Cc1cc(N2CCN(c3ncccn3)CC2)nc2ccccc12` ; its fluorescence ratio, lower = inhibition = inactive

Consider `Cc1ccnc(N2CCCC2)n1` . Its measured fluorescence ratio, lower = inhibition is inactive

So for `FC(F)(F)c1cc(N2CCCCCC2)nc2ccccc12` , the logged fluorescence ratio, lower = inhibition turned out to be inactive

Measured fluorescence ratio, lower = inhibition of `Cc1cc(N(C)CCN(C)C)nc2ccccc12` : inactive
